Kindly state melting point for each of the entries shown.

q: Identify melting point associated with the compound CN1C(=O)CCC(C(=O)O)C1c1ccc(C(F)(F)F)cc1 (stereo not drawn)
a: 188 to 190 °C

q: Look up melting point of `O=C(O)CCS(=O)(=O)Nc1ccccc1` and report it.
a: 127 to 129 °C

q: Quickly give me recorded melting point for `CCN(CC)S(=O)(=O)c1ccc(O)c(N)c1`
a: 74 to 76 °C

q: Using known records, supply melting point for CC(=O)C(C#N)c1ccc(Cl)cc1 (stereo not drawn)
a: 129 to 131 °C

q: Identify measured melting point associated with `CC(C)N(O)C(=O)C(=O)O`
a: 99 to 101 °C

q: Specify melting point for `O=C(O)c1c(F)ccc(S(=O)(=O)NC2CC2)c1F` and stop.
a: 134 to 136 °C

q: Retrieve melting point measured for `O=C(O)C=C1CCSCC1` and print it.
a: 56 to 58 °C

q: Indicate the recorded melting point value for this compound: `Nc1ccccc1C(=O)NCc1cccnc1`
a: 119 to 121 °C

q: State its melting point: `CCOC(=O)c1noc(N)c1-c1ccccc1`
a: 105 to 117 °C

q: Give the reported value of melting point for this record: `ClCc1csc(Cc2ccc(Cl)cc2)n1`
a: 68 to 70 °C

q: Fill in reported melting point for this entry: `O=C(O)C=Cc1cccc2cccnc12`
a: 188 to 190 °C

q: Identify measured melting point associated with `COCCOCC(=O)Nc1cccc(N)c1C`
a: 82 to 84 °C

q: Assign melting point to the following record: `COCCOC(=O)c1c(C)[nH]c(C(=O)O)c1C`
a: 177 to 179 °C

q: Answer with reported melting point of `NC(=O)c1cnn(-c2ncccn2)c1N`
a: 256 to 258 °C

q: Supply reported melting point belonging to this compound: `O=C(O)C=Cc1cc(Cl)cc(Cl)c1`
a: 130 to 134 °C

q: # return recorded melting point for entry `O=C(O)Cc1csc(-c2ccc(F)cc2)n1`
a: 129 to 131 °C

q: # return recorded melting point for entry `CC(C)c1ccc(-c2cc(N)on2)cc1`
a: 113 to 115 °C

q: Supply recorded melting point for `O=C(CCl)NOCc1ccccc1` here.
a: 92 to 94 °C

q: Give a short answer stating reported melting point for `Cc1cc(C(=O)O)c2cnn(C(C)C)c2n1` .
a: 172 to 174 °C

q: Using the record for `CCOC(=O)c1cc(C)nc2cc(C)nn12` , state its measured melting point.
a: 81 to 83 °C

q: Read off the recorded melting point for `O=C(Nc1cccc(Br)c1)C1CCNCC1`
a: 178 to 180 °C

q: Look up melting point of `Cc1nc(SCC(=O)O)c(C#N)c(C)c1C` and report it.
a: 135 to 138 °C

q: Please look at this compound and report its melting point: `O=C(O)COc1ccc(F)c(Cl)c1`
a: 106 to 108 °C

q: Please supply the value of reported melting point for the item CC(C)(C)OC(=O)N1CC(=O)NC2CNCCC21 (stereo not drawn)
a: 144 to 146 °C

q: Input `CNc1ccc([N+](=O)[O-])cc1C(=O)O` , output reported melting point.
a: 261 to 263 °C

q: Assign melting point to the following record: `Cn1[nH]c(-c2ccco2)c(-c2ccc3c(c2)OCO3)c1=N`
a: 140 to 142 °C

q: Quick one: give measured melting point for `CC(C)NS(=O)(=O)c1ccc(Cl)c(C(=O)O)c1Cl`
a: 218 to 220 °C

q: # return recorded melting point for entry `O=[N+]([O-])c1c(F)ccc2ncccc12`
a: 84 to 86 °C

Reference for the values: a melting point compilation (Tetko et al.)
